system: Mus musculus; test: Neurotoxicity in Kunming mouse at 300 mg/kg, ip after 0.5 hrs; assay type: toxicity, organism-based; set-up: dose 300 mg/kg, route intraperitoneal; conditions: in vivo
measured-attribute: Activity

O=C1CC(c2ccccc2Br)n2nccc2N1 (stereo not drawn)
Toxic
O=C1CC(c2ccccc2)n2nccc2N1 (stereo not drawn)
Toxic
O=C1CC(c2cccc(C(F)(F)F)c2)n2ncnc2N1 (stereo not drawn)
Toxic
O=C1CC(c2ccccc2Br)n2ncnc2N1 (stereo not drawn)
Non-toxic
O=C1CC(c2cccc(Br)c2)n2ncnc2N1 (stereo not drawn)
Non-toxic

Sure, the documented Activity for O=C1CC(c2ccccc2F)n2nccc2N1 (stereo not drawn) is Toxic

The molecule O=C1CC(c2ccccc2Cl)n2nccc2N1 (stereo not drawn) showed Activity equal to Toxic

Summary for this molecule, O=C1CC(c2ccccc2)n2ccnc2N1 (stereo not drawn) : Activity is Non-toxic
